Tested on: intestinal alkaline phosphatase [Mus musculus]
assayNotes: mouse intestinal phosphatase enzyme activation – biochemical, luminescence, single concentration, confirmation (AID 434970)
studyConditions: purified mouse IAP, CDP-Star luminescence, 30 min, at 10 µM; measured here: IAP activation factor, stronger effect = higher value
Out of some 11,000 compounds screened, about 310 (2.8%) were called active. Shown is part of a subset that was picked to be rich in actives.
parameterMeasured: activation factor

>>> result("O=C(Nc1ccccc1)Nc1cc(Cl)cc(Cl)c1")
3.41
>>> result("Fc1cccc(NC(=S)NCc2ccc(Cl)cc2)c1")
1.31
>>> result("O=C(Nc1cc(Cl)cc(Cl)c1)c1cnn2cccnc12")
0.974
>>> result("S=C(NCc1cccnc1)Nc1cc(Cl)cc(Cl)c1")
1.38
>>> result("COc1ccc(OC)c(N)c1")
0.877
>>> result("O=C1CC(c2nc3ccccc3[nH]2)CN1c1ccccc1 (configuration not stated)")
0.951
>>> result("CCn1c(CSc2nc3ccccc3[nH]2)nc2cc(C(=O)O)ccc21")
0.865

---

Measured activity change, negative = activation values are reported for all entries that follow.
Tested on: intestinal alkaline phosphatase [Mus musculus]
assayNotes: mouse intestinal phosphatase enzyme activation – biochemical, luminescence, single concentration, confirmation (AID 434970)
studyConditions: purified mouse IAP, CDP-Star luminescence, 30 min, at 10 µM; stronger effect = lower value
Hit rate of the full screen: of about 11,000 compounds, about 310 (2.8%) were called active. Many of the other results were omitted from the sample, so actives are more common in it than they were.
parameterMeasured: activity change, negative = activation

>>> result("Cc1ccc(NC(=S)NC(NC(=O)c2ccccc2C)C(Cl)(Cl)Cl)c(C)c1 (configuration not stated)")
"-211% (active)"
>>> result("CCc1ccc(NC(=O)C2CC(=O)N(C(C)C)C2)cc1 (configuration not stated)")
"7.45% (inactive)"
>>> result("CC(C)[C@H]1COCCS(=O)(=O)N1Cc1ccccc1-c1cccc2c1oc1ccccc12")
"7.3% (inactive)"
>>> result("Cc1ccccc1NC(=S)NC(NC(=O)COc1ccccc1)C(Cl)(Cl)Cl (configuration not stated)")
"-73% (inactive)"
>>> result("CCC(C)OC(=O)C1=C(C)NC2=C(C(=O)C(C(=O)OC)C(C)C2)C1c1ccc(N(C)C)cc1 (configuration not stated)")
"-6.35% (inactive)"
>>> result("COc1ccc(CNC(=S)Nc2cccc(Cl)c2)cc1")
"-24.7% (inactive)"
>>> result("C=CCNc1nc(Nc2ccc(OC)cc2)nc(OC)n1")
"0.8% (inactive)"
>>> result("C=C(C)c1cccc(C(C)(C)NC(=O)Nc2ccc(C(N)=O)cc2)c1")
"-118% (active)"
>>> result("COc1ccc(NC(=O)N(C)C[C@H]2Oc3ccc(NC(=O)NC4CCCCC4)cc3C(=O)N([C@H](C)CO)C[C@@H]2C)cc1")
"-60.9% (inactive)"
>>> result("CC(=O)Nc1ccc(S(=O)(=O)Nc2cccc(NC(=O)C(C)(C)C)c2)cc1")
"-11.8% (inactive)"
>>> result("CCn1nnnc1SCC(=O)Nc1ccc2c(c1)OCO2")
"0.8% (inactive)"
>>> result("Cc1ccc(SCCNC(=S)Nc2ccc(C)c(C)c2)cc1")
"-45.9% (inactive)"
>>> result("C[C@H](CO)N1C[C@H](C)[C@@H](CN(C)S(=O)(=O)c2ccc(F)cc2)Oc2ccc(NC(=O)NC3CCCCC3)cc2C1=O")
"-120% (active)"
>>> result("CC(=O)c1ccc(NC(=O)CCn2c(=O)oc3ccccc32)cc1")
"-3.25% (inactive)"
>>> result("COc1ccc(C(=O)OC(C(=O)c2ccccc2)c2ccccc2)cc1 (configuration not stated)")
"1.8% (inactive)"
>>> result("C[C@H](CO)N1C[C@H](C)[C@@H](CN(C)S(=O)(=O)c2ccc(F)cc2)Oc2ccc(NC(=O)Nc3ccc4c(c3)OCO4)cc2C1=O")
"-81.6% (inactive)"
>>> result("COc1cccc(NC(=O)CN(c2cccc(C(F)(F)F)c2)S(C)(=O)=O)c1")
"-12.2% (inactive)"
>>> result("CCn1nc(C(=O)Nc2cccc(C(F)(F)F)c2)c(Cl)c1Cl")
"4.85% (inactive)"
>>> result("Cc1ccc(C)c(CN2CCC(CNC(=O)Nc3ccc(C)c(F)c3)CC2)c1")
"-116% (active)"
>>> result("Cc1ccc(C)c(CN2CCC(CNC(=O)Nc3ccc(C)c(C)c3)CC2)c1")
"-121% (active)"
>>> result("CCOc1ccc(CC(=O)OCN2C(=O)c3ccccc3C2=O)cc1")
"7.35% (inactive)"
>>> result("Cc1ccc(NC(=O)CS(=O)CC(=O)NCC2CCCO2)cc1 (configuration not stated)")
"-6.55% (inactive)"
>>> result("CCCCC1=CC2=C(c3ccco3)C(=O)C(C)(OC(=O)c3ccc(OC)cc3)C(=O)C2=CN1Cc1ccc2c(c1)OCO2 (configuration not stated)")
"49.7% (inactive)"
>>> result("COc1cccc(NC(=O)Nc2cc(Cl)ccc2C)c1")
"-40.7% (inactive)"
>>> result("O=C1/C(=C/c2ccco2)CCc2ccccc21")
"-4% (inactive)"
>>> result("COc1cc(NC(=S)NCCC(c2ccccc2)c2ccccc2)cc(OC)c1")
"-228% (active)"
>>> result("O=C(O)c1ccccc1NC(=S)NC(NC(=O)c1ccccc1[N+](=O)[O-])C(Cl)(Cl)Cl (configuration not stated)")
"17% (inactive)"
>>> result("CC(=O)NC(NC(=S)Nc1ccc(N=Nc2ccccc2C)cc1C)C(Cl)(Cl)Cl (configuration not stated)")
"15.2% (inactive)"
>>> result("COc1cccc(NC(=S)NCCN2CCOCC2)c1")
"-8.4% (inactive)"
>>> result("Cc1c(C(=O)NCC2COc3ccccc3O2)oc2ccc(S(=O)(=O)N3CCOCC3)cc12 (configuration not stated)")
"-6.7% (inactive)"
>>> result("C=C(C)c1cccc(C(C)(C)NC(=O)NCC2COCCO2)c1 (configuration not stated)")
"-9.1% (inactive)"
>>> result("Cc1cc(C)cc(NC(=O)NCC2CCN(Cc3cc(C)ccc3C)CC2)c1")
"-132% (active)"
>>> result("COc1ccc(NC(=O)C2CCN(c3nc(C)cc(C)n3)CC2)cc1")
"4.05% (inactive)"
>>> result("CC(C)Oc1ccc(/C=N/NC(=O)C(CSCc2ccccc2)NC(=O)c2ccc([N+](=O)[O-])cc2)cc1 (configuration not stated)")
"5.95% (inactive)"
>>> result("COc1cccc(C(C)NC(=O)Nc2cccc(C(F)(F)F)c2)c1 (configuration not stated)")
"-284% (active)"
>>> result("Cc1ccc(SCC(=O)Nc2ccc(N3CCN(C)CC3)c(F)c2)c(C)c1")
"-13% (inactive)"
>>> result("C=C(C)c1cccc(C(C)(C)NC(=O)NC(c2ccccc2)c2ccc(OC)cc2)c1 (configuration not stated)")
"-359% (active)"
>>> result("CCOC(=O)C1=CN(CC)S(=O)(=O)NC1c1ccc(F)c(Cl)c1 (configuration not stated)")
"-9.6% (inactive)"
>>> result("COc1ccc(OC)c(NC(=O)C2C3CCC(C3=C(C)C)C2C(=O)O)c1 (configuration not stated)")
"10.9% (inactive)"
>>> result("COC(=O)[C@H](CCSC)NC(=O)Cn1cnc(C(=O)Nc2ccc(C)c(C)c2)n1")
"4.35% (inactive)"
>>> result("FC(F)(F)c1nnc2sc(-c3cccs3)nn12")
"3.3% (inactive)"
>>> result("COc1cccc(NC(=O)Nc2ccc(C)c(Cl)c2)c1")
"-117% (active)"

Entry source: PubChem BioAssay AID434970
